Assignment: determine reported IC50 for the given molecules.
Biological target: PI3Kβ (Homo sapiens (Human))
Sequence (P42338 whole entry, canonical isoform): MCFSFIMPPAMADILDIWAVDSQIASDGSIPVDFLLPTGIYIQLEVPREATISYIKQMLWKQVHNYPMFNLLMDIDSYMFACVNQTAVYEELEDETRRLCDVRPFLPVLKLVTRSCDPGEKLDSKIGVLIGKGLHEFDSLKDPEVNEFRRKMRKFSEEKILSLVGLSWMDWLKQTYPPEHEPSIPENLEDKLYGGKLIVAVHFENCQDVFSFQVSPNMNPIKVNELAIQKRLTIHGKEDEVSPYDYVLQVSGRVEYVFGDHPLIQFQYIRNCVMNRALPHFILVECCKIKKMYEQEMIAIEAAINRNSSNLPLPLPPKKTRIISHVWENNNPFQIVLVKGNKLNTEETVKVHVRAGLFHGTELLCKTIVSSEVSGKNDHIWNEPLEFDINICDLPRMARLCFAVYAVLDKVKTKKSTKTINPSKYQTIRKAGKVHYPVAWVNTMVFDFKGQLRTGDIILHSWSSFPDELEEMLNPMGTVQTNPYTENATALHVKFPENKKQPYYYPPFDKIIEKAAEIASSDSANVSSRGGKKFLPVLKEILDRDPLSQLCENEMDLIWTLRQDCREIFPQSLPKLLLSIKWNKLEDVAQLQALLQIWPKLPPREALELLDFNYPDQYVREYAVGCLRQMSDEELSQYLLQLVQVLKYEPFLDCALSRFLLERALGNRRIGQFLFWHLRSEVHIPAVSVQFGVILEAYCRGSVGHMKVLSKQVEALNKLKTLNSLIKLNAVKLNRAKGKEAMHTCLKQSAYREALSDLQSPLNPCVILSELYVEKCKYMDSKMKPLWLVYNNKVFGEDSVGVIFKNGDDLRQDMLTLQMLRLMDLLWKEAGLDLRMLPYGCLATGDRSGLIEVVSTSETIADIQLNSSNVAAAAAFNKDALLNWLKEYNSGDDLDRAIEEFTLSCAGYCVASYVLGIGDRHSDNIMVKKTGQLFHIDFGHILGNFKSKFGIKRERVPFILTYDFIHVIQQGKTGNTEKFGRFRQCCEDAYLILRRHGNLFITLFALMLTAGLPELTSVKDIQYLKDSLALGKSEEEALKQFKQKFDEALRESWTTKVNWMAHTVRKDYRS
Sequence (P27986 whole entry partner, canonical isoform): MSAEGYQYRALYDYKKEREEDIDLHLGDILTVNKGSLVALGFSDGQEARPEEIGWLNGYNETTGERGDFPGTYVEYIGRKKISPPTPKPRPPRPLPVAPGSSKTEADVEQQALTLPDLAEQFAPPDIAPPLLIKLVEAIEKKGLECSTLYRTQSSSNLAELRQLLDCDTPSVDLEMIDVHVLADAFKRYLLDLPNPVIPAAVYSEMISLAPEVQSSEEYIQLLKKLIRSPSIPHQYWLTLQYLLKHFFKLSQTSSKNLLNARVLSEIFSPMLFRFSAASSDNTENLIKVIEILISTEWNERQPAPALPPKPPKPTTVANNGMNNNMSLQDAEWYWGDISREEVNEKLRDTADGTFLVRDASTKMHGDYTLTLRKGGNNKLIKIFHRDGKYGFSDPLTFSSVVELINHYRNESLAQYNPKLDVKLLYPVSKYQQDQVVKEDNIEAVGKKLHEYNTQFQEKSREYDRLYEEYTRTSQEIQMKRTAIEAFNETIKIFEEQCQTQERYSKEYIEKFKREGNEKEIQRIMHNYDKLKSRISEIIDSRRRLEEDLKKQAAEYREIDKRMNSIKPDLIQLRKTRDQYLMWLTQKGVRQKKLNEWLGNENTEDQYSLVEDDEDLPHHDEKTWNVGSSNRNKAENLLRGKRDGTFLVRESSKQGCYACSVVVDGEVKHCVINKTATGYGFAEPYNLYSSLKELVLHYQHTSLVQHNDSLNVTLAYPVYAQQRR
Assay: TR-FRET enzymatic activity assay against PI3K isoforms
Format: biochemical
Conditions: PI3Kβ, TR-FRET, 2×Km ATP, 30 minutes at 25° C.
Hi! Could you send only the number? It should be in µM, unit omitted.

QUERY: Recorded IC50 for C[C@H](Nc1nc(N)nc(N)c1C#N)c1nc2cccc(Cl)c2c(=O)n1CCc1ccn[nH]1 [Compound 140] with PI3Kβ (Homo sapiens (Human)), please?
RESULT: 0.41

QUERY: Recorded IC50 for N#Cc1c(N)nc(N)nc1N[C@H](c1nc2c(Cl)ccc(Cl)c2c(=O)n1CCCC(N)=O)C1CC1 [Compound 65] with PI3Kβ (Homo sapiens (Human)), please?
RESULT: 0.007

QUERY: Recorded IC50 for N#Cc1c(N)nc(N)nc1N[C@H](c1nc2cccc(Cl)c2c(=O)n1CCCC(N)=O)C1CC1 [Compound 66] with PI3Kβ (Homo sapiens (Human)), please?
RESULT: 0.004

QUERY: Recorded IC50 for CC(CN)n1c([C@H](C)Nc2ncnc(N)c2C#N)nc2cccc(Cl)c2c1=O (some centres unmarked) [Compound 25] with PI3Kβ (Homo sapiens (Human)), please?
RESULT: 1.3

QUERY: Recorded IC50 for COCCCn1c([C@H](C)Nc2ncnc(N)c2C#N)nc2c(Cl)ccc(Cl)c2c1=O [Compound 106] with PI3Kβ (Homo sapiens (Human)), please?
RESULT: 0.59

QUERY: Recorded IC50 for C[C@H](Nc1ncnc(N)c1C#N)c1nc2cccc(Cl)c2c(=O)n1[C@H]1CC[C@H](O)CC1 [Compound 85] with PI3Kβ (Homo sapiens (Human)), please?
RESULT: 0.092

QUERY: Recorded IC50 for C[C@H](Nc1nc(N)nc(N)c1C#N)c1nc2cccc(Cl)c2c(=O)n1CCCC#N [Compound 110] with PI3Kβ (Homo sapiens (Human)), please?
RESULT: 0.042

QUERY: Recorded IC50 for CC(C)NCC(O)CCn1c([C@H](C)Nc2nc(N)nc(N)c2C#N)nc2cccc(Cl)c2c1=O (some centres unmarked) [Compound 74] with PI3Kβ (Homo sapiens (Human)), please?
RESULT: 0.017

====

Target: PI3Kβ (Homo sapiens (Human))
Assay: TR-FRET enzymatic activity assay against PI3K isoforms
Settings: PI3Kβ, TR-FRET, 2×Km ATP, 30 minutes at 25° C.
From the text: The compounds of formula (I) were characterized for their enzymatic activity against the PI3K isoforms. […] TR-FRET monitored the formation of 3,4,5-inositol triphosphate molecule that competed with fluorescently labeled PIP3 for binding to the GRP-1 pleckstrin homology domain protein.
attribute measured: pIC50
pIC50 field: float, defined as -log10 of concentration (mol/L).

QUERY: Look up pIC50: C[C@H](Nc1ncnc(N)c1C#N)c1nc2cccc(Cl)c2c(=O)n1N(CCN)Cc1ccccc1 [Compound 13]
RESULT: 5.17

QUERY: Look up pIC50: N#CCCCCn1c([C@@H](Nc2nc(N)nc(N)c2C#N)C2CC2)nc2cccc(Cl)c2c1=O [Compound 114]
RESULT: 7.92

QUERY: Look up pIC50: C[C@H](Nc1ncnc(N)c1C#N)c1nc2cccc(Cl)c2c(=O)n1CC1CCCN1 (some centres unmarked) [Compound 90]
RESULT: 5.55

QUERY: Look up pIC50: C[C@H](Nc1nc(N)nc(N)c1C#N)c1nc2cccc(Cl)c2c(=O)n1Cc1nc[nH]n1 [Compound 81]
RESULT: 7.33

QUERY: Look up pIC50: C[C@H](Nc1ncnc(N)c1C#N)c1nc2cccc(Cl)c2c(=O)n1CC1CCCNC1 (some centres unmarked) [Compound 92]
RESULT: 6.49

QUERY: Look up pIC50: N#Cc1c(N)nc(N)nc1N[C@H](c1nc2cccc(Cl)c2c(=O)n1CCCN)C1CC1 [Compound 47]
RESULT: 8.30

QUERY: Look up pIC50: CNCCCn1c([C@H](C)Nc2nc(N)nc(C)c2C#N)nc2cccc(Cl)c2c1=O [Compound 41]
RESULT: 7.82

QUERY: Look up pIC50: C[C@H](Nc1ncnc(N)c1C#N)c1nc2cccc(Cl)c2c(=O)n1CCCN1CCCCC1 [Compound 134]
RESULT: 6.26
